Reported values of remaining at 10 h for individual entries
assay: Chemical stability of the compound in HEPES buffer assessed as compound remaining at 10 mg at pH 7.4 measured at 10 hrs by HPLC method; type: physicochemical; details: read-out: Stability
// note: answer is a bare numeric in %

[[record]]
cpd_smiles = "COc1ccc(/C=N\\CCc2ccc(S(N)(=O)=O)cc2)cc1"
reported_result = 43

[[record]]
cpd_smiles = "NS(=O)(=O)c1ccc(CC/N=C\\c2ccccc2)cc1"
reported_result = 51

[[record]]
cpd_smiles = "COc1ccc(CNCCc2ccc(S(N)(=O)=O)cc2)cc1"
reported_result = 100


Lookup: Field request: remaining at 10 h | item: NS(=O)(=O)c1ccc(CCNCc2ccccc2)cc1
Found: 100
